This collection of values is drawn from PubChem BioAssay (NCATS).

Procedure Details: Quantitative High-Throughput drug screen in 47 multiple myeloma cell lines against the NCATS MIPE library collection: JIM3_ECACC cell viability assay (AID 1918963; further: nearly all actives have a fitted effect of over 35% in size)
Recorded Conditions: JIM3 myeloma viability, CellTiter-Glo ATP, 48 h; series mostly up to 45.8 µM
Inconclusive results are not listed. Activity calls are given as the source filed them. The call rests on the fitted dose curve; in most records, active means well fitted cell-killing curve with a large enough effect; inconclusive means small, poorly fitted or top-dose-only effect; inactive means no such curve, though single readings can be large or run the other way.
Labels: 1 (active), 0 (inactive)

Molecule: CC1(C)CC(O)CC(C)(C)N1[O]
Qualitative Label: 0

Molecule: O=C(Nc1nnc(-c2ccco2)o1)c1cc(-c2ccccc2)nc2ccccc12
Qualitative Label: 1

Molecule: OCCNC1CCCc2c1[nH]c1ccc(-c3ccccc3)cc21 (centres undefined)
Qualitative Label: 1

Molecule: CCN(C(=O)c1c(O)c2c(Cl)cccc2n(C)c1=O)c1ccccc1
Qualitative Label: 0

Molecule: O=C(C=Cc1ccc(CN(CCO)CCc2c[nH]c3ccccc23)cc1)NO
Qualitative Label: 1

Molecule: CC(=O)[C@]1(O)Cc2c(O)c3c(c(O)c2[C@@H](O[C@H]2C[C@H](N)[C@@H](O)[C@H](C)O2)C1)C(=O)c1ccccc1C3=O
Qualitative Label: 1

Molecule: CCc1ccc(C(=O)Nc2cc(CN3CCN(C)CC3)cc(C(F)(F)F)c2)cc1C#Cc1cnc2ccnn2c1
Qualitative Label: 1

Molecule: Oc1cc2c(cc1O)C1c3ccc(O)c(O)c3OCC1(O)C2 (centres undefined)
Qualitative Label: 0

Molecule: O=c1c(O)c(-c2ccc(O)c(O)c2)oc2cc(O)ccc12
Qualitative Label: 1

Molecule: C[C@](Cc1c[nH]c2ccccc12)(NC(=O)OC1C2CC3CC(C2)CC1C3)C(=O)NC[C@H](NC(=O)CCC(=O)O)c1ccccc1 (some centres undefined)
Qualitative Label: 0

Molecule: Nc1nc(=O)n([C@H]2C[C@H](O)[C@@H](CO)O2)cc1F
Qualitative Label: 1

Molecule: CCCNS(=O)(=O)Nc1ncnc(OCCOc2ncc(Br)cn2)c1-c1ccc(Br)cc1
Qualitative Label: 0

Molecule: N#Cc1cc(NC(=O)Nc2nnc(-c3ccncc3)s2)ccc1-c1cn[nH]c1
Qualitative Label: 0

Molecule: Cc1ccccc1C(=O)Nc1ccc(C(=O)N2CCCC(O)c3cc(Cl)ccc32)c(C)c1 (centres undefined)
Qualitative Label: 0

Molecule: COc1cc(C)c(Sc2cnc(NC(=O)c3ccc(CNC(C)C(C)(C)C)cc3)s2)cc1C(=O)N1CCN(C(C)=O)CC1 (centres undefined)
Qualitative Label: 1

Molecule: CC(C)[C@H](CO)Nc1nc(Nc2cccc(Cl)c2)c2ncn(C(C)C)c2n1
Qualitative Label: 1

Molecule: CCCCCN=C(N)NN=Cc1c[nH]c2ccc(OC)cc12
Qualitative Label: 1

Molecule: C[C@H]1COc2c(N3CCN(C)CC3)c(F)cc3c(=O)c(C(=O)O)cn1c23
Qualitative Label: 0

Molecule: C=Cc1c(C)c2cc3nc(cc4[nH]c(cc5nc(cc1[nH]2)C(C)=C5CCC(=O)O)c(CCC(=O)OC)c4C)[C@@]1(C)C3=CC=C(C(=O)OC)[C@H]1C(=O)OC
Qualitative Label: 1

====

Procedure Details: Quantitative High-Throughput drug screen in 47 multiple myeloma cell lines against the NCATS MIPE library collection: MM1R_ATCC cell viability assay (AID 1918981); further: nearly all actives have a fitted effect of over 35% in size
Recorded Conditions: MM1R multiple myeloma cells, CellTiter-Glo viability, 48 h; series mostly up to 45.8 µM
Results filed as inconclusive are left out. The source made the active and inactive calls. Calls follow the shape of the dose curve; as a rule, active = well fitted cell-killing curve with a large enough effect; inconclusive = small, poorly fitted or top-dose-only effect, or effect the other way; inactive = no such curve, though single readings can be large or run the other way.
Labels: yes (1) (active), no (0) (inactive)

Compound: CC1(C)CC(O)CC(C)(C)N1[O]
Qualitative Label: no (0)
--
Compound: COc1ccc2c(c1OC)C(=O)OC2[C@H]1c2c(cc3c(c2OC)OCO3)CCN1C (stereo partly specified)
Qualitative Label: yes (1)
--
Compound: C=CC(=O)Nc1cc(NC(=O)c2ccc(C)c(NC(=O)c3ccno3)c2)cc(C(F)(F)F)c1
Qualitative Label: yes (1)
--
Compound: c1coc(CNc2ncnc3nc[nH]c23)c1
Qualitative Label: no (0)
--
Compound: CCCc1nc(C(C)(C)O)c(C(=O)O)n1Cc1ccc(-c2ccccc2-c2nn[nH]n2)cc1
Qualitative Label: no (0)
--
Compound: CC(C)N1[N]C(=C2C=c3cc(O)ccc3=N2)c2c(N)ncnc21
Qualitative Label: yes (1)
--
Compound: CCN(CC)Cc1ccc2cc(COC(=O)Nc3ccc(C(=O)NO)cc3)ccc2c1
Qualitative Label: yes (1)
--
Compound: O=C(CN1C(=O)C2(CCCC2)NC[C@H]1c1cc(F)cc(F)c1)Nc1ccc2c(c1)C[C@@]1(C2)C(=O)Nc2ncccc21
Qualitative Label: no (0)
--
Compound: CN(C)c1ccc(C(=O)NCCCCCCC(=O)NO)cc1
Qualitative Label: yes (1)
--
Compound: CC[C@]12C=CCN3CC[C@@]4(c5cc([C@@]6(C(=O)OC)C[C@H]7C[C@@H](C(C)(F)F)CN(Cc8c6[nH]c6ccccc86)C7)c(OC)cc5N(C)[C@H]4[C@@](O)(C(=O)OC)[C@H]1OC(C)=O)[C@@H]32
Qualitative Label: yes (1)
--
Compound: COc1ccc(Nc2cc(-c3cnc(N)nc3)nc(N3CCOCC3)n2)cn1
Qualitative Label: yes (1)
--
Compound: O=C(O)CCCCCC(=O)NN=C1CCCC1
Qualitative Label: no (0)
--
Compound: CCCCCCCCCCCCc1ccc(S(=O)(=O)Nc2nncs2)cc1
Qualitative Label: yes (1)
--
Compound: N#CC(=C(O)c1ccc(Cl)cc1Cl)c1nc2cc(Cl)ccc2c(=O)[nH]1
Qualitative Label: no (0)
--
Compound: COc1cc(C)c(Sc2cnc(NC(=O)c3ccc(CNC(C)C(C)(C)C)cc3)s2)cc1C(=O)N1CCN(C(C)=O)CC1 (stereo unspecified)
Qualitative Label: yes (1)
--
Compound: CC(C)n1cnc2c(NCCc3ccc(O)cc3)nc(-c3csc4ccccc34)nc21
Qualitative Label: yes (1)
--
Compound: C[C@@H]1CC[C@@]2(OC1)OC1CC3C4CC=C5CC(O)CCC5(C)C4CCC3(C)C1[C@@H]2C (stereo partly specified)
Qualitative Label: no (0)
--
Compound: C[C@H]1[C@@H](OC(=O)CCC(=O)O)O[C@@H]2O[C@@]3(C)CC[C@@H]4[C@H](C)CC[C@@H]1[C@@]24OO3
Qualitative Label: yes (1)
--
Compound: CC(=O)C1=C(O)C=C2Oc3c(C(C)=O)c(O)c(C)c(O)c3C2(C)C1=O (stereo unspecified)
Qualitative Label: no (0)
--
Compound: O=C1CSC(=O)N1C(CCc1ccncc1)COc1ccc(-c2cccc([N+](=O)[O-])c2)cc1 (stereo unspecified)
Qualitative Label: yes (1)
--
Compound: COc1cc(C)c(C=CC(C)=CC=CC(C)=CC(=O)O)c(C)c1C
Qualitative Label: no (0)
--
Compound: COc1cc(N2CCC(C(N)=O)CC2)ccc1Nc1nc(N)c(Cl)c(Nc2ccccc2S(=O)(=O)C(C)C)n1
Qualitative Label: yes (1)
--
Compound: NC(=NCCCCCCN=C(N)N=C(N)Nc1ccc(Cl)cc1)N=C(N)Nc1ccc(Cl)cc1
Qualitative Label: yes (1)
--
Compound: C=CC[C@@H]1C=C(C)C[C@H](C)C[C@H](OC)[C@H]2O[C@@](O)(C(=O)C(=O)N3CCCC[C@H]3C(=O)O[C@H](C(C)=C[C@@H]3CC[C@H](O)[C@H](OC)C3)[C@@H](C)[C@@H](O)CC1=O)[C@@H](C)C[C@@H]2OC
Qualitative Label: yes (1)
--
Compound: Nc1nc(N)c2nc(-c3cccc(O)c3)c(-c3cccc(O)c3)nc2n1
Qualitative Label: yes (1)
--
Compound: C[N+]1(C)[C@@H]2C[C@@H](OC(=O)C(O)(c3cccs3)c3cccs3)C[C@H]1[C@@H]1O[C@@H]12
Qualitative Label: no (0)
--
Compound: COc1cc(OC)c(NC(=O)Nc2cc(C)on2)cc1Cl
Qualitative Label: no (0)
--
Compound: N#Cc1cc(NC(=O)Nc2nnc(-c3ccncc3)s2)ccc1-c1cn[nH]c1
Qualitative Label: no (0)
--
Compound: CNC(=O)c1cccc(-c2ccc3c(N4CCOC[C@H]4C)nc(N4CCOC[C@H]4C)nc3n2)c1
Qualitative Label: yes (1)
--
Compound: CON=C(C(=O)N[C@@H]1C(=O)N2C(C(=O)O)=C(Cn3ccc(=N)n3CCO)CS[C@H]12)c1csc(N)n1
Qualitative Label: no (0)
--
Compound: O=C(NC1CC1)c1cccc(-c2ccc3c(NC(=O)C4CC4)n[nH]c3c2)c1
Qualitative Label: yes (1)
